Where a name gives a salt, the structure may show the parent alone.
MEASURED METRIC: melting point (°C)
Form entry: value (°C) — number only.

In: Output measured melting point for this item: Cc1cc(OC2CCN(C(C)c3nc4c(cc3F)OCCO4)CC2)ncc1C#N (centres unmarked)
Out: 161.44

In: Give reported melting point value for Cc1cc(OC2CCN([C@H](C)c3nc4c(cc3F)CCO4)CC2)cc(C)n1 (single isomer, unassigned)
Out: 105.3

In: Using the record for CNC(=O)c1ccc(OC2CCN(C(C)c3ccc4c(n3)OCCO4)CC2)cn1 (centres unmarked) , state its measured melting point.
Out: 94.5

In: Recall and state the measured melting point for Cc1cc(OC2(CF)CCN(C(C)c3ccc4c(n3)OCCO4)CC2)cc(C)n1 (centres unmarked) (as salt: HCl) .
Out: 189.8

In: Using the record for CC(c1ccc2c(n1)OCCO2)N1CCC(Oc2ccc(C#N)nc2)CC1 (centres unmarked) , state its measured melting point.
Out: 133

In: Supply melting point value. Item: Cc1ccc(OC2CCN(C(C)c3ccc4c(n3)OCCO4)CC2)cn1 (centres unmarked) (as salt: HCl)
Out: 226.7

In: // fetch melting point given entry Cc1ncc(OC2CCN(C(C)c3ccc4c(c3)OCO4)CC2)cn1.Cl (centres unmarked)
Out: 213.2

In: For Cc1ncc(COC2CCN(C(C)c3nc4c(cc3F)OCCO4)CC2)cn1 (centres unmarked) [Compound 135] , write its melting point.
Out: 132.9

In: Please report melting point for the following compound: Cc1ncc(OC2CCN(C(C)c3nc4c(cc3F)CCO4)CC2)cn1 (centres unmarked)
Out: 127.82

In: Report melting point for CCOc1cc(OC2CCN(C(C)c3ccc4c(n3)OCCO4)CC2)cc(C)n1.Cl (centres unmarked)
Out: 119.6

In: Please give measured melting point of the following entry: Cc1cncc(OC2CCN(C(C)c3ccc4c(n3)OCCO4)CC2)n1 (centres unmarked)
Out: 91.71

In: Read off the recorded melting point for Cc1ccc(OC2CCN(C(C)c3ccc4c(n3)OCCO4)CC2)nn1.Cl (centres unmarked)
Out: 168

In: Return melting point (reported value) for this compound: Cc1ncc(OC2CCN(C(C)c3nc4c(cc3F)OCCO4)CC2)cn1.Cl (centres unmarked)
Out: 134.6

In: Return melting point (reported value) for this compound: Cc1ccc(OC2CCN(C(C)c3nc4c(cc3F)OCCO4)CC2)nc1C (centres unmarked)
Out: 140.6

In: Output melting point of Cc1ncc(NC2CCN(C(C)c3nc4c(cc3F)OCCO4)CC2)cn1 (centres unmarked)
Out: 209.9

In: Return melting point (reported value) for this compound: Cc1cc(OC2CCN(C(C)c3ccc4c(n3)OCCO4)CC2)cc(C(C)C)n1 (centres unmarked) (as salt: HCl)
Out: 186.4

In: Look up and report measured melting point for this entry: Cc1ncc(OC2CCN(C(C)c3ccc4c(n3)OCCO4)CC2)cn1.Cl (centres unmarked)
Out: 72.8

* * *

# TARGET UNDER TEST: recombinant human Meningioma Expressed Antigen 5 (MGEA5), also referred to as O-GlcNAcase (OGA) (Homo sapiens, UniProt O60502)
# Construct: Full length OGA enzyme was purchased at OriGene (cat #TP322411); purchased OriGene TP322411
# Sequence (O60502 whole entry): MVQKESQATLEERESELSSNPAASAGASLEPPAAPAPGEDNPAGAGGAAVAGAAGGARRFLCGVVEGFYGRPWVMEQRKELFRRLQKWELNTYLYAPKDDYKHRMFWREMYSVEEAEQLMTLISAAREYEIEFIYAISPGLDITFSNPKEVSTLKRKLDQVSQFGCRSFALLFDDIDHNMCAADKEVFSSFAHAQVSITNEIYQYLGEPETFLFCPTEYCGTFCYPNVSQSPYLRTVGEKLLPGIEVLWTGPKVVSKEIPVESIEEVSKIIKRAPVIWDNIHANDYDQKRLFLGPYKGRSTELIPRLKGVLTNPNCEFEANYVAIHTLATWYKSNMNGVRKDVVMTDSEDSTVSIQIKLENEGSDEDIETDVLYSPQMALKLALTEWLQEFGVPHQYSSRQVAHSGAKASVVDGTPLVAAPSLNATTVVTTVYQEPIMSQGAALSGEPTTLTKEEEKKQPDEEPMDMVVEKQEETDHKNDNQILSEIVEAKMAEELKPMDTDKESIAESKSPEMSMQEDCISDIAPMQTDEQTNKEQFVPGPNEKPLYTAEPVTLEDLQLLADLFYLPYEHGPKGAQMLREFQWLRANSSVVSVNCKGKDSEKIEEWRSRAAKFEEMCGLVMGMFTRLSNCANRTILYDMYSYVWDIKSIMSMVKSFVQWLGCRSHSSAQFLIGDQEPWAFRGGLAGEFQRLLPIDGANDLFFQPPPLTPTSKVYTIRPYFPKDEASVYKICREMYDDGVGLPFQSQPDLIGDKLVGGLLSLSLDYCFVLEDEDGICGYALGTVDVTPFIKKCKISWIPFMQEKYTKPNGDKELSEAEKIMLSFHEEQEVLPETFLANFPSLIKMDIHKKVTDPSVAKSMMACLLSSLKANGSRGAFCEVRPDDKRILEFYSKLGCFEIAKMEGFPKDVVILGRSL
# PROCEDURE TEXT: OGA biochemical assay (inhibition of FM-GlcNAc hydrolysis, fluorescence)
# MEASUREMENT SETUP: read-out: Enzymatic hOGA, pIC50 (converted)
MEASURED METRIC: IC50 (nM)
# value in nM; strip the unit string

In: Tell me IC50 reported for Cc1cc(C(F)(F)F)cc(OC2CCN(C(C)c3nc4c(cc3F)OCCO4)CC2)n1 (stereo not shown)
Out: 20

In: Specify measured IC50 for CC(c1ccc2c(n1)OCCO2)N1CCC(COc2ccc(C(F)(F)F)cn2)CC1 (stereo not shown) .
Out: 501

In: Write down IC50 measured for item COc1cc(OC2CCN(C(C)c3ccc4sc(C)nc4n3)CC2)cc(C)n1 (single isomer, unassigned) [Compound 23]
Out: 3980

In: Item Cc1cc(OC2CCN(C(C)c3ccc4c(n3)OCCO4)CC2)cc(C2CC2)n1 (stereo not shown) : provide IC50
Out: 31.6

Just for reference, patent US20210122763A1 is where these values come from.
